Assay: Mouse PK assay
Assay type: in vivo
Details: 50 mg/kg, B6 female mice, plasma
Documented mouse Cmin, po across a set of compounds
experimental.readout: mouse Cmin, po (ng/mL)

compound	experimental.readout	test.value
CNC(=O)c1c(C)oc2cc(Oc3ccnc4cc(-c5nccn5C)sc34)ccc12 [Example 13]	mouse Cmin, po	1700
Cc1sc2cc(Oc3ccnc4cc(C(=O)N5CCC[C@H]5CO)sc34)ccc2c1C(=O)NC1CC1 [Example 8]	mouse Cmin, po	105
CNC(=O)c1c(C)sc2cc(Oc3ccnc4cc(C(=O)N5C[C@H](OC)[C@H](OC)C5)sc34)ccc12 [Example 5]	mouse Cmin, po	256

* * *

Documented log10 Ki across a set of compounds
Molecular target: unphosphorylated VEGF-R2Δ50 (FLVK) (Homo sapiens, UniProt P35968, DEL940-989/E990V)
Construct: VEGF-R2Δ50 contains residues 806–939 and 990–1171
Sequence (P35968 with tags, fused parts or gaps DEL940-989/E990V limits assumed): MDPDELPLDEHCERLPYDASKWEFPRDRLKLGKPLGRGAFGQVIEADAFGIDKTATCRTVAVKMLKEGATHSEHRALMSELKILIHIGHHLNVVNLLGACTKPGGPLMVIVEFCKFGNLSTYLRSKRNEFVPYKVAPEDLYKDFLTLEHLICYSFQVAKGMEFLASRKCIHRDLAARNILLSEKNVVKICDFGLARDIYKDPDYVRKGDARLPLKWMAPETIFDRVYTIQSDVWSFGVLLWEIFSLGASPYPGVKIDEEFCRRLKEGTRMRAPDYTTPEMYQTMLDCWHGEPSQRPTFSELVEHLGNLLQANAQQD
Assay: VEGF-R2 coupled spectrophotometric assay, unphosphorylated VEGF-R2Δ50 (FLVK)
Settings: unphosphorylated VEGF-R2Δ50
experimental.readout: log10 Ki (log10 of the value in nM)

compound	target.desc	experimental.readout	test.value
CNC(=O)c1c(C)n(C)c2cc(Oc3ccnc4cc(C(=O)N5CCC5)sc34)ccc12 [Example 25]	unphosphorylated VEGF-R2Δ50 (FLVK) (Homo sapiens, UniProt P35968, DEL940-989/E990V)	log10 Ki	0.61
CNC(=O)c1c(C)sc2cc(Oc3ccnc4cc(-c5ccnn5C)sc34)ccc12 [Example 10]	unphosphorylated VEGF-R2Δ50 (FLVK) (Homo sapiens, UniProt P35968, DEL940-989/E990V)	log10 Ki	0.36
CNC(=O)c1cn(C)c2cc(Oc3ccnc4cc(C(=O)N5CC[C@@H](O)C5)sc34)ccc12 [Example 21]	unphosphorylated VEGF-R2Δ50 (FLVK) (Homo sapiens, UniProt P35968, DEL940-989/E990V)	log10 Ki	1.12
CNC(=O)c1c(C)n(C)c2cc(Oc3ccnc4cc(C(=O)N5CC[C@@H](N(C)C)C5)sc34)ccc12 [Example 27]	unphosphorylated VEGF-R2Δ50 (FLVK) (Homo sapiens, UniProt P35968, DEL940-989/E990V)	log10 Ki	1.98
CO[C@@H]1CCN(C(=O)c2cc3nccc(Oc4ccc5c(C(=O)NCC(C)C)c(C)oc5c4)c3s2)C1 [Example 87]	unphosphorylated VEGF-R2Δ50 (FLVK) (Homo sapiens, UniProt P35968, DEL940-989/E990V)	log10 Ki	-0.21
CCc1oc2cc(Oc3ccnc4cc(C(=O)N5CCC[C@H]5COC)sc34)ccc2c1C(=O)NC [Example 96]	unphosphorylated VEGF-R2Δ50 (FLVK) (Homo sapiens, UniProt P35968, DEL940-989/E990V)	log10 Ki	0.98
COC[C@@H]1CCCN1C(=O)c1cc2nccc(Oc3ccc4c(C(=O)NCC5CC5)c(C)sc4c3)c2s1 [Example 132]	unphosphorylated VEGF-R2Δ50 (FLVK) (Homo sapiens, UniProt P35968, DEL940-989/E990V)	log10 Ki	0.25
CCc1sc2cc(Oc3ccnc4cc(C(=O)N5CCC5)sc34)ccc2c1C(=O)NC [Example 138]	unphosphorylated VEGF-R2Δ50 (FLVK) (Homo sapiens, UniProt P35968, DEL940-989/E990V)	log10 Ki	-0.11

Source: patent US7045528B2
